Cited source for all entries: the DeepSol protein solubility set

Assay: soluble on expression in E. coli; label from the status in PepcDB or PDB records
PARAMETER MEASURED: soluble on expression in E. coli

As a guide, the following entries are already answered.
INSERT INTO measurements (macromolecule_sequence, parameter_measured, meas_value) VALUES
  ('MEISTLLALSPLDGRYQQKVAALRPFFSEYALIRNRIHVEIEWFKALGNTPALTGASSLSTGAVVQLDQLVENFSVTDAEAVKSIETRTNHDVKAVEYWLKEKLTGDQETAAISE', 'soluble on expression in E. coli', 'not soluble'),
  ('MGSDKIHHHHHHMMRVFHLVLAPRLSGAEVLAKDLALDQCAEGMAVCVASLLPAHAEFAPLQDDLQRHGVQCVFPRRRHRALVKLCHLFGAVRRFRPDVIFAHATIPSFYARALPLRVPVVYVMHSATNDFERPLFRRIEHILSGRARVVIGVSEQGVTDYVQAIGPHPSMTVVPNGVDLARFSFTDGVERDGRTPQVVQIGRYAAVKNQLATVRAFSEVLMKGKDARLVLYGVVEDPDYQRAVVALAKELGIAERVVVAGPRTDVATVLSESNVFVMPSQSEAHSVAFLEALASGVPIVASKIPAFAFANGFPGVQLIDTDNVQCYAEAVIAALGQERAQRSLTGLTLRDTADRYRAIARQVSLAVPAR', 'soluble on expression in E. coli', 'not soluble'),
  ('MGSDKIHHHHHHMAEIDFIGRYHNATKRDYVQRVVEYDKAECAATAKQWGFDYWDGDRRHGFGGMRYDGRWLPLAEDLVRHYGLKAGDKVLDIGCGKAFLLYEMTRACPGLTVAGLDISEYGINNAKEEVRPFLTLGNATRLPWPDRHFDLVISINTFHNLQIHELDQAVREMQRVSTGRGYICVESYRDESEKANLLYWQLTCESFHRPEGWRWVYDQAGYTGDHGFIYFQ', 'soluble on expression in E. coli', 'not soluble'),
  ('MSAVLNGKKPVSILLLGTDTGALGRNYKGRTDTIILATINPKTKTTTLMSLPRDSEVAVSGFEQDFPTKLNAAYAYGSAGTTIKTVQKWLNVPIDYYALINMGGMKKVVDEIGGVDITPIRTFTYEGYTFTKGQKEHMNGAKALAYSRMRYDDPLGDYGRQQRQRQLITAIIGESASASNLLKQDFLNSLAKQTRTDLTFGNLTSIVTNYRSATKNIVSDHAQGTGKMIDGQSFEVVSQSEKQRVTNVLRKSLNLKAATTGEKFANQNLEHHHHHH', 'soluble on expression in E. coli', 'soluble'),
  ('MPITIGNGFLKSEILTNSPRNTKEAWWKVLWEKIKDFFFSTGKAKADRCLHEMLFAERAPTRERLTEIFFELKELACASQRDRFQVHNPHENDATIILRIMDQNEENELLRITQNTDTFSCEVMGNLYFLMKDRPDILKSHPQMTAMIKRRYSEIVDYPLPSTLCLNPAGAPILSVPLDNIEGYLYTELRKGHLDGWKAQEKATYLAAKIQSGIEKTTRILHHANISESTQQNAFLETMAMCGLKQLEIPPPHTHIPIEKMVKEVLLADKTFQAFLVTDPSTSQSMLAEIVEAISDQVFHAIFRIDPQAIQKMAEEQLTTLHVRSEQQSGCLCCFLLEHHHHHH', 'soluble on expression in E. coli', 'soluble');

--- query ---
Reported soluble on expression in E. coli for MLDLVNQLELDSQMKQFKLVSQMTRQDVIILDEPGYLPFSQKRGALLFHLMSQLHENTSVIITTNLEFSEWGTLFTEAKMTNALLDRLIHHCHMLETGNESYRFKHRNLEHHHHHH was not soluble
